# credit: the Human Domainome abundance scans (Beltran et al. 2025)

B1: Transitional endoplasmic reticulum ATPase, residues 26 to 106; numbered along this chain, P55072 (parent)
chain: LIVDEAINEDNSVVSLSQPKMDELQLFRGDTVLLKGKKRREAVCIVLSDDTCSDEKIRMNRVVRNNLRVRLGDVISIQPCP

variants of: B1; assay: abundance fitness (aPCA) (normalised: wild type 0, dead -1); higher = more abundant; growth selection in yeast, the domain comes from the species named; settings: Homo sapiens
# abundance fitness per entry
Lab note: record just the number, no unit beside it.

Known results for variants:
[
  {
    "mutation.name": "E9N",
    "observed.measurement": 0.184
  },
  {
    "mutation.name": "R70E",
    "observed.measurement": 0.106
  },
  {
    "mutation.name": "A6D",
    "observed.measurement": -0.054
  },
  {
    "mutation.name": "C44D",
    "observed.measurement": -0.707
  },
  {
    "mutation.name": "C44N",
    "observed.measurement": -0.172
  }
]

Prompt line: Item R64G has what recorded abundance fitness?
Response line: -0.638

Prompt line: Item T31L has what recorded abundance fitness?
Response line: -0.129

Prompt line: Item D22Q has what recorded abundance fitness?
Response line: 0.023

Prompt line: Item E9P has what recorded abundance fitness?
Response line: 0.048

Prompt line: Item N66W has what recorded abundance fitness?
Response line: -0.255

Prompt line: Item D50P has what recorded abundance fitness?
Response line: -0.105
